# subject of test: Serine/threonine-protein kinase B-raf (Homo sapiens, UniProt P15056, V600E)
# Sequence (P15056 2-766 V600E limits assumed): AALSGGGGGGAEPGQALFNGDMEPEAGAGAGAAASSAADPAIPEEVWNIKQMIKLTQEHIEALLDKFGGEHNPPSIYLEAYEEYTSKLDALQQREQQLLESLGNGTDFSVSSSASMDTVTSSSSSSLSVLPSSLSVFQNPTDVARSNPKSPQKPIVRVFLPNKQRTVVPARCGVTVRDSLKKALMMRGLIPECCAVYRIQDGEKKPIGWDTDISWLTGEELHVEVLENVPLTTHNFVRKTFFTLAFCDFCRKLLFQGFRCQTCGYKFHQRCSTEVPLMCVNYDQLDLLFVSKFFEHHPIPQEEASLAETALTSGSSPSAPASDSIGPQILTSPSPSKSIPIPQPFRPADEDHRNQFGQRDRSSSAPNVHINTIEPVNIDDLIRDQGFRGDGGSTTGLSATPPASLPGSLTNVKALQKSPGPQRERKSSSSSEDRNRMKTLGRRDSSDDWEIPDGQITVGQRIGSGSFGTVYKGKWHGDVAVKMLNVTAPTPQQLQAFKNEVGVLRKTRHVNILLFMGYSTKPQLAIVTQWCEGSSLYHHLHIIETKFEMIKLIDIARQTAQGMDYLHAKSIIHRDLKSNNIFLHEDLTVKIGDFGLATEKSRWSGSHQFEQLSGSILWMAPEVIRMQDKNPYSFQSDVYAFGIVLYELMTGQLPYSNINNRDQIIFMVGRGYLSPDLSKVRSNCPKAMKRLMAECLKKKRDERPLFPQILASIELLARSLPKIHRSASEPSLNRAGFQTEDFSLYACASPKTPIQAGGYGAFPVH
# protocol text: Inhibition of BRAF V600E mutant
measured endpoint: IC50 (nM)

{"smiles input": "O=C(Nc1cccc(C(F)(F)F)c1)Nc1ccc(Oc2ccnc3[nH]c(=O)[nH]c23)cc1F", "unit of measurement": "nM", "observed value": 12}

(A) O=C(Nc1ccc(Cl)c(C(F)(F)F)c1)Nc1ccc(Oc2ccnc3[nH]c(=O)[nH]c23)c2ccccc12
(B) Cn1c(=O)[nH]c2c(Oc3ccc(NC(=O)Nc4ccc(Cl)c(C(F)(F)F)c4)c4ccccc34)ccnc21
Request: Returns: the label, A or B , whose recorded IC50 is the lower number. Could you answer with the label of the item you picked?
Result: A

(a) COc1cc(Oc2ccnc3[nH]c(=O)[nH]c23)ccc1NC(=O)Nc1ccc(Cl)c(C(F)(F)F)c1
(b) Cn1c(=O)[nH]c2nccc(Oc3ccc(NC(=O)Nc4cccc(C(F)(F)F)c4)c4ccccc34)c21
Request: Sort a and b by IC50 descending and give the first. Could you answer with the label of the item you picked?
Result: a

====

# subject of test: Serine/threonine-protein kinase B-raf (Homo sapiens, UniProt P15056, V600E)
# protocol text: Inhibition of BRAF V600E mutant-mediated ERK phosphorylation in human WM266.4 cells
# Type: cell-based
pIC50: −log10 of the molar value.
measured endpoint: pIC50

{"smiles input": "Cn1c(=O)[nH]c2c(Oc3ccc(NC(=O)Nc4cc(C(F)(F)F)ccc4F)c4ccccc34)ccnc21", "observed value": 5.70}

(P) O=C(Nc1ccc(Cl)c(C(F)(F)F)c1)Nc1ccc(Oc2ccnc3[nH]c(=O)[nH]c23)cc1F
(Q) O=C(Nc1cc(C(F)(F)F)ccc1F)Nc1ccc(Oc2ccnc3[nH]c(=O)[nH]c23)c2ccccc12
(R) CN(C)c1cc(Oc2ccnc3[nH]c(=O)[nH]c23)ccc1NC(=O)Nc1ccc(Cl)c(C(F)(F)F)c1
Request: Rank the 3 molecules: largest pIC50 first, smallest last. # respond with the labels, arranged in the requested order
Result: Q, P, R

====

# subject of test: Serine/threonine-protein kinase B-raf (Homo sapiens, UniProt P15056, V600E)
# protocol text: Inhibition of BRAF V600E mutant
measured endpoint: IC50 (nM)

Examples from the recorded data:
{"smiles input": "Cn1c(=O)[nH]c2nccc(Oc3ccc(NC(=O)Nc4ccc(Cl)c(C(F)(F)F)c4)c(F)c3)c21", "subject of test": "Serine/threonine-protein kinase B-raf (Homo sapiens, UniProt P15056, V600E)", "IC50, nM": 10}
{"smiles input": "Cn1c(=O)[nH]c2nccc(Oc3ccc(NC(=O)Nc4cccc(SC(F)(F)F)c4)c4ccccc34)c21", "subject of test": "Serine/threonine-protein kinase B-raf (Homo sapiens, UniProt P15056, V600E)", "IC50, nM": 24}
{"smiles input": "Cn1c(=O)[nH]c2nccc(Oc3ccc(NC(=O)c4cccc(SC(F)(F)F)c4)c4ccccc34)c21", "subject of test": "Serine/threonine-protein kinase B-raf (Homo sapiens, UniProt P15056, V600E)", "IC50, nM": 4600}
{"smiles input": "COc1cc(NC(=O)Nc2ccc(Cl)c(C(F)(F)F)c2)ccc1Oc1ccnc2[nH]c(=O)[nH]c12", "subject of test": "Serine/threonine-protein kinase B-raf (Homo sapiens, UniProt P15056, V600E)", "IC50, nM": 25}
{"smiles input": "CSc1cc(Oc2ccnc3[nH]c(=O)[nH]c23)ccc1NC(=O)Nc1cc(C(F)(F)F)ccc1F", "subject of test": "Serine/threonine-protein kinase B-raf (Homo sapiens, UniProt P15056, V600E)", "IC50, nM": 12}

(1) Cn1c(=O)[nH]c2nccc(Oc3ccc(NC(=O)Nc4cc(C(F)(F)F)ccc4F)c4ccccc34)c21
(2) O=C(Nc1ccc(Cl)c(C(F)(F)F)c1)Nc1ccc(Oc2ccnc3[nH]c(=O)[nH]c23)cc1-c1ccccc1
Request: Sort 1 and 2 by IC50 descending and give the first. Could you answer with the label of the item you picked?
Result: 2
(2: 6500 nM, 1: 17 nM)

(1) COc1cc(NC(=O)Nc2cccc(C(F)(F)F)c2)ccc1Oc1ccnc2[nH]c(=O)[nH]c12
(2) Cn1c(=O)[nH]c2nccc(Oc3ccc(NC(=O)Nc4cccc(C(C)(C)C)c4)c4ccccc34)c21
(3) CC(C)(C)c1cccc(NC(=O)Nc2ccc(Oc3ccnc4[nH]c(=O)[nH]c34)c3ccccc23)c1
Request: Rank the 3 compounds: largest IC50 first, smallest last. # respond with the labels, arranged in the requested order
Result: 3, 2, 1

(1) O=C(Nc1ccc(Oc2ccnc3[nH]c(=O)[nH]c23)c(F)c1)Nc1ccc(Cl)c(C(F)(F)F)c1
(2) O=C(Nc1ccc(Cl)c(C(F)(F)F)c1)Nc1ccc(Oc2ccnc3[nH]c(=O)[nH]c23)cc1Cl
(3) Cn1c(=O)[nH]c2c(Oc3ccc(NC(=O)Nc4cc(C(F)(F)F)ccc4F)c4ccccc34)ccnc21
(4) O=C(Nc1ccc(Cl)c(C(F)(F)F)c1)Nc1ccc(Oc2ccnc3[nH]c(=O)[nH]c23)cc1F
Request: Arrange items by their IC50 values in increasing order. # respond with the labels, arranged in the requested order
Result: 4, 2, 1, 3

(A) Cc1c(NC(=O)Nc2ccc(Cl)c(C(F)(F)F)c2)ccc(Oc2ccnc3[nH]c(=O)[nH]c23)c1C
(B) Cc1cc(NC(=O)Nc2ccc(Cl)c(C(F)(F)F)c2)ccc1Oc1ccnc2[nH]c(=O)[nH]c12
Request: Returns: the label, A or B , whose recorded IC50 is the lower number. Could you answer with the label of the item you picked?
Result: B
(B: 23 nM, A: 56 nM)

====

# subject of test: Serine/threonine-protein kinase B-raf (Homo sapiens, UniProt P15056, V600E)
# protocol text: Inhibition of BRAF V600E mutant-mediated ERK phosphorylation in human WM266.4 cells
# Assay type: cell-based
pIC50: −log10 of the molar value.
measured endpoint: pIC50

Examples from the recorded data:
{"smiles input": "CSc1cc(Oc2ccnc3[nH]c(=O)[nH]c23)ccc1NC(=O)Nc1cccc(C(F)(F)F)c1", "pIC50": 5.89}
{"smiles input": "O=C(Nc1cccc(C(F)(F)F)c1)Nc1ccc(Oc2ccnc3[nH]c(=O)[nH]c23)c2ccccc12", "pIC50": 5.72}
{"smiles input": "Cn1c(=O)[nH]c2nccc(Oc3ccc(NC(=O)Nc4cccc(C(F)(F)F)c4)c4ccccc34)c21", "pIC50": 6.22}
{"smiles input": "Cn1c(=O)[nH]c2nccc(Oc3ccc(NC(=O)c4cccc(SC(F)(F)F)c4)c4ccccc34)c21", "pIC50": 4.74}
{"smiles input": "O=C(Nc1cc(C(F)(F)F)ccc1N1CCOCC1)Nc1ccc(Oc2ccnc3[nH]c(=O)[nH]c23)c2ccccc12", "pIC50": 6.46}

(1) O=C(Nc1ccc(Oc2ccnc3[nH]c(=O)[nH]c23)c(F)c1)Nc1ccc(Cl)c(C(F)(F)F)c1
(2) Cn1c(=O)[nH]c2c(Oc3ccc(NC(=O)Nc4ccc(Cl)c(C(F)(F)F)c4)c4ccccc34)ccnc21
Request: Sort 1 and 2 by pIC50 descending and give the first. Could you answer with the label of the item you picked?
Result: 2

(a) Cn1c(=O)[nH]c2c(Oc3ccc(NC(=O)Nc4cccc(C(C)(C)C)c4)c4ccccc34)ccnc21
(b) Cn1c(=O)[nH]c2nccc(Oc3ccc(NC(=O)Nc4ccc(Cl)c(C(F)(F)F)c4)c4ccccc34)c21
Request: Sort a and b by pIC50 descending and give the first. Could you answer with the label of the item you picked?
Result: b
(b: 6.11, a: 4.34)

(1) Cc1cc(Oc2ccnc3[nH]c(=O)[nH]c23)ccc1NC(=O)Nc1ccc(Cl)c(C(F)(F)F)c1
(2) CSc1cc(Oc2ccnc3[nH]c(=O)[nH]c23)ccc1NC(=O)Nc1ccc(Cl)c(C(F)(F)F)c1
(3) CS(=O)(=O)c1cc(Oc2ccnc3[nH]c(=O)[nH]c23)ccc1NC(=O)Nc1ccc(Cl)c(C(F)(F)F)c1
Request: Rank the 3 compounds: largest pIC50 first, smallest last. # respond with the labels, arranged in the requested order
Result: 2, 1, 3

====

# subject of test: Serine/threonine-protein kinase B-raf (Homo sapiens, UniProt P15056, V600E)
# protocol text: Inhibition of BRAF V600E mutant-mediated ERK phosphorylation in human WM266.4 cells
# Assay type: cell-based
pIC50: −log10 of the molar value.
measured endpoint: pIC50

Examples from the recorded data:
{"smiles input": "O=C(Nc1ccc(Oc2ccnc3[nH]c(=O)[nH]c23)cc1F)Nc1cc(C(F)(F)F)ccc1F", "subject of test": "Serine/threonine-protein kinase B-raf (Homo sapiens, UniProt P15056, V600E)", "pIC50": 5.89}
{"smiles input": "Cn1c(=O)[nH]c2nccc(Oc3ccc(NC(=O)Nc4cccc(C(C)(C)C)c4)c4ccccc34)c21", "subject of test": "Serine/threonine-protein kinase B-raf (Homo sapiens, UniProt P15056, V600E)", "pIC50": 5.97}
{"smiles input": "CSc1cc(Oc2ccnc3[nH]c(=O)[nH]c23)ccc1NC(=O)Nc1cc(C(F)(F)F)ccc1F", "subject of test": "Serine/threonine-protein kinase B-raf (Homo sapiens, UniProt P15056, V600E)", "pIC50": 5.51}

(P) O=C(Nc1ccc(Cl)c(C(F)(F)F)c1)Nc1ccc(Oc2ccnc3[nH]c(=O)[nH]c23)cc1Cl
(Q) Cn1c(=O)[nH]c2nccc(Oc3ccc(NC(=O)Nc4ccc(Cl)c(C(F)(F)F)c4)c(F)c3)c21
(R) O=C(Nc1ccc(Cl)c(C(F)(F)F)c1)Nc1ccc(Oc2ccnc3[nH]c(=O)[nH]c23)cc1C(F)(F)F
Request: Arrange items by their pIC50 values in increasing order. # respond with the labels, arranged in the requested order
Result: Q, R, P

Reference source for all entries: ChEMBL document CHEMBL1136991
